The following compounds are listed with their measured inhibition in vivo at 0.48 mg values.
system: aldosterone; assay: Aldosterone antagonist effect in adrenalectomized DOCA-treated rats, urinary Na+/K+ (method of C. M. Kagawa); type: in vivo; conditions: Rattus norvegicus, po; 480 μg/animal p.o.; read-out: DOCA blocking activity

# Compound, inhibition in vivo at 0.48 mg / %
data = [
    ("CN1C[C@@]2(CC[C@H]3[C@@H]4C=C[C@]56C[C@@H](O)CC[C@]5(C6)[C@H]4CC[C@@]32C)OC1=O", 51),
    ("CN1C[C@@]2(CC[C@H]3[C@@H]4CCC5=CC(=O)CC[C@@H]5[C@H]4CC[C@@]32C)OC1=O", 61),
    ("CN1C[C@@]2(CC[C@H]3[C@@H]4CC=C5C[C@@H](F)CC[C@]5(C)[C@H]4CC[C@@]32C)OC1=O", 26),
    ("CC[C@]12CC[C@H]3[C@@H](CCC4=CC(=O)CC[C@@H]43)[C@@H]1CC[C@@]21CN(C)C(=O)O1", 45),
    ("CC(=O)S[C@@H]1CC2=CC(=O)CC[C@]2(C)[C@H]2CC[C@@]3(C)[C@@H](CC[C@@]34CCC(=O)O4)[C@H]12 [Spironolactone, reference compound]", 54),
    ("C/C=C\\N1C[C@@]2(CC[C@H]3[C@@H]4CCC5=C(CC=C(OC)C5)[C@H]4CC[C@@]32CC)OC1=O", 49),
    ("CC[C@]12CC[C@@H]3C4=C(CC[C@H]3[C@@H]1CC[C@@]21CN(C)C(=O)O1)CC(=O)CC4", 31),
    ("CC[C@]12CC[C@H]3[C@@H](CCC4=CC(=NOC)CC[C@@H]43)[C@@H]1CC[C@@]21CN(C)C(=O)O1", 53),
    ("CN1C[C@@]2(CC[C@H]3[C@@H]4C=CC5=CC(=O)CC[C@]5(C)[C@H]4CC[C@@]32C)OC1=O", 46),
]
